ASSAY_DETAILS: Caco-2 permeability assay
Assay type: in vitro ADME
EXPERIMENTAL_CONTEXT: human, pH 7.4, Caco-2, basolateral-to-apical, 10 μM
QUANTITY_NAME: Papp B→A at 90 min, 10 μM (×10⁻⁶ cm/s)
Report as a plain number; the unit ×10⁻⁶ cm/s is understood.

Reported Papp B→A at 90 min, 10 μM for COc1c(OCC(F)(F)F)ccc2[nH]cc(C(=O)OCC34CCN(CC3)CC4)c12 was 25.5

* * *

ASSAY_DETAILS: Metabolic stability assay in rat liver microsomes (RLM)
Format: in vitro ADME
EXPERIMENTAL_CONTEXT: rat, microsomes, 1 μM
Where a name gives a salt, the structure may show the parent alone.
Note to self: class = bucket of RLM, per LOW = under 3 L/h/kg, MID = from 3 L/h/kg up to 30 L/h/kg, HIGH = 30 L/h/kg and over

Examples from the recorded data:
State the class of the molecule shown: COc1cc(C)cc2[nH]cc(C(=O)OCC34CCN(CC3)CC4)c12
MID

Band assignment needed for O=C(OCC12CCN(CC1)CC2)c1c[nH]c2ccc(F)c(Br)c12 please.
HIGH

Using the reported RLM, which band applies to Cc1c(OCCO)ccc2[nH]cc(C(=O)OCC34CCN(CC3)CC4)c12 [Compound 95, 2,2,2-trifluoroacetate salt] ?
LOW

State the band of Cc1cc2c(C(=O)OCC34CCN(CC3)CC4)c[nH]c2cc1O
LOW

Pick a category. Item: COc1cc2c(C(=O)OCC34CCN(CC3)CC4)c[nH]c2cc1C#N
LOW

Continuing:
Bin? COc1ccc2[nH]cc(C(=O)OCC34CCN(CC3)CC4)c2c1Br
HIGH

Bin this entry: COc1cc(Cl)c2c(C(=O)OCC34CCN(CC3)CC4)c[nH]c2c1
MID

Exam item: assign O=C(OCC12CCN(CC1)CC2)c1c[nH]c2cc(Cl)cc(Br)c12 to the correct category.
MID

Returns: class label. Input: Cc1ccc2[nH]cc(C(=O)OCC34CCN(CC3)CC4)c2c1Cl
HIGH

* * *

ASSAY_DETAILS: Metabolic stability assay in human liver microsomes (HLM)
Type: in vitro ADME
EXPERIMENTAL_CONTEXT: human, microsomes, 1 μM
HLM of 6 mL/min/kg or higher: yes (1). Under 6 mL/min/kg: no (0).

// inclusive: HLM at least 6 mL/min/kg? input: Cc1cc(C#N)cc2[nH]cc(C(=O)OCC34CCN(CC3)CC4)c12
yes (1)

Textbook exercise: given the entry COc1c(OCC(F)(F)F)ccc2[nH]cc(C(=O)OCC34CCN(CC3)CC4)c12 , state whether its HLM is greater than or equal to 6 mL/min/kg.
no (0)

Assess whether reported HLM for COc1ccc2[nH]cc(C(=O)OCC34CCN(CC3)CC4)c2c1OC sits at 6 mL/min/kg or higher.
yes (1)

Hello, I need to know if COc1cc2c(C(=O)OCC34CCN(CC3)CC4)c[nH]c2cc1Cl has measured HLM not below 6 mL/min/kg. Thanks!
yes (1)

Hi, just wondering whether COc1ccc2[nH]cc(C(=O)OCC34CCN(CC3)CC4)c2c1Br shows HLM of 6 mL/min/kg or higher.
yes (1)

* * *

ASSAY_DETAILS: Human plasma stability
Format: in vitro ADME
EXPERIMENTAL_CONTEXT: human, plasma, 2 h, 5 μM
Counter-ions that a name gives are not always drawn.
Rule: measured % Remaining @ 2 h below 90% gets Fulfilled; anything equal to or greater than 90% gets Not fulfilled.

A selection of reference data follows.
Given the entry Cc1c(F)ccc2[nH]cc(C(=O)OCC34CCN(CC3)CC4)c12 , would its reported % Remaining @ 2 h be below 90%?
Not fulfilled

Does this molecule meet the criterion % Remaining @ 2 h < 90%? O=C(OCC12CCN(CC1)CC2)c1c[nH]c2ccc(F)c(Cl)c12 [Compound 62, hydrochloride]
Fulfilled

Is 90% strictly greater than the molecule's reported % Remaining @ 2 h? molecule: COc1cc(C)cc2[nH]cc(C(=O)OCC34CCN(CC3)CC4)c12
Fulfilled

Hello, I'm reviewing records and need to know if % Remaining @ 2 h of COc1c(OCC(F)(F)F)ccc2[nH]cc(C(=O)OCC34CCN(CC3)CC4)c12 is below 90%. Could you check?
Not fulfilled

Lab note: % Remaining @ 2 h threshold 90%. Does this molecule come in strictly under it? O=C(OCC12CCN(CC1)CC2)c1c[nH]c2cccc(C3CC3)c12
Not fulfilled

# check: % Remaining @ 2 h < 90% for COc1c(C)ccc2[nH]cc(C(=O)OCC34CCN(CC3)CC4)c12
Not fulfilled

Dear reviewer, please state whether COc1cc(C)c2c(C(=O)OCC34CCN(CC3)CC4)c[nH]c2c1 has % Remaining @ 2 h strictly beneath 90%.
Not fulfilled

State whether 90% exceeds % Remaining @ 2 h recorded for Cc1cc(OC(=O)C(C)(C)C)cc2[nH]cc(C(=O)OCC34CCN(CC3)CC4)c12 .
Fulfilled

Continue with the next molecule.
Confirm or reject: % Remaining @ 2 h of Cc1ccc2[nH]cc(C(=O)OCC34CCN(CC3)CC4)c2c1Cl lies strictly below 90%
Fulfilled
